Experiment: binders of probe aFGF10 on microarray, primary screen, stem cell growth factor project, biochemical, small-molecule microarray, fluorescence 635/667 (AID 1071);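 note: score merges 667 nm spot intensity and signal to noise from triplicate slides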
Conditions: higher = more signal
Experimental endpoint: composite z-score

compound=C=C(COC)C(=O)CC[C@@H](OC(=O)c1cccnc1)c1ccc(CO)o1 result=-0.0132
compound=[N-]=[N+]=NCc1ccccc1C[C@@]1(C(=O)N2CCOCC2)N=C(c2ccc(OCCCO)cc2)O[C@@H]1c1ccccc1CN=[N+]=[N-] result=1.01
compound=CN(C)CCCCNC(=O)[C@H]1C[C@H]2C(=O)N[C@@H](Cc3ccccc3)C(=O)N2[C@H]1c1ccc(O)cc1 result=0.934

Problem: Data request, read-out composite z-score, for C=CCC(OC(C)=O)[C@@H]1[C@@H](N(Cc2ccc(-c3ccccc3)cc2)C(=O)Cc2ccc(F)cc2)c2cc(OCCCO)ccc2N1C(=O)c1ccc2ccccc2n1 (some centres undefined)
Result: -0.372

* * *

Assay: modulators of S6 phosphorylation in cells, primary screen, cell-based, A549, cytoblot, luminescence, serum-stimulated (AID 1158);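 note: serum-stimulated A549 lung adenocarcinoma cells; signal is phosphorylated S6 detected by cytoblot immunostaining with HRP secondary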
Conditions: A549 phospho-S6 cytoblot, 5 h, higher = more signal
Experimental endpoint: z-score
Answer with the value's number alone.

In the examples that follow, each entry is paired with its recorded z-score.
molecule=C=C(COC)C(=O)CC[C@H](OC(C)=O)c1cccc(OCCO)c1 number=2.19
molecule="O=C1OCCC=C[C@H]2OC34C=CCN(Cc5ccccc5)C(=O)[C@H]3N(CCCCCO)C(=O)[C@@H]4C12 (stereo not given in full)" number=0.469
molecule=CC(C)NC(=O)[C@@]1(Cc2ccccc2I)c2ccccc2C(=O)N(Cc2ccccc2)[C@H]1c1ccc(CO)cc1 number=-0.0212
molecule=Cc1ccc(S[C@]2(C(=O)O)CC(=O)N(C3Cc4ccccc4C3)[C@@H]2c2ccc(CO)cc2I)cc1 number=-0.148
molecule=COc1ccc(C(=O)Nc2cccc(CN3C(=O)[C@]4(O[C@H](CC(=O)N5CCC[C@H]5CO)[C@@H]([Si](C)(C)c5ccc(OC)cc5)[C@@H]4C)c4ccccc43)c2)cc1 number=1.97
molecule="N#Cc1ccc(NN2C(C(O)C3CCCCC3)C=CC3C(=O)N(c4ccccc4)C(=O)C32)cc1 (stereo not given)" number=-0.911
molecule=C=CC[C@@]1(C(=O)O)N=C(c2ccc(OCCCO)cc2)O[C@@H]1c1ccccc1N=[N+]=[N-] number=-0.567
molecule=CN(C)C(=O)[C@]1(CCC(=O)OC(C)(C)C)N=C(c2ccc(OCCCO)cc2)O[C@@H]1c1ccccc1N=[N+]=[N-] number=-0.294

Problem: Data request, read-out z-score, for COCCOC(=O)N1C(=O)[C@@]2(c3cc(C#CCNC(N)=O)ccc31)[C@H](C(=O)N1CCc3cc(OC)c(OC)cc3C1)[C@H]1C(=O)O[C@H](c3ccccc3)[C@H](c3ccccc3)N1[C@@H]2c1ccc(OCCO)cc1
Result: 0.412

Problem: And then N[C@@H](Cc1ccccc1)Cn1cc(-c2ccccc2)nn1 , what is it?
Result: -0.209

Problem: And then O=C1O[C@H](c2ccccc2)[C@H](c2ccccc2)N2[C@H]1[C@@H](C(=O)NC[C@H](O)c1ccccc1)[C@]1(C(=O)Nc3ccc(C#CCCO)cc31)[C@H]2c1ccc(O)cc1 , what is it?
Result: 1.21

Problem: And then C=C[C@H](COC(C)=O)N(Cc1ccc(OC(C)=O)c(OC)c1)S(=O)(=O)c1ccc(Br)cc1 , what is it?
Result: 2

Problem: And then COc1ccc(C(O)C2C=CC3C(=O)N(C)C(=O)C3N2Nc2ccccc2)cc1OCc1ccccc1 (stereo not given) , what is it?
Result: -1.17

Problem: And then COCCOC(=O)N1C(=O)[C@@]2(c3cc(C#CCNC(N)=O)ccc31)[C@H](c1ccc(OCCO)cc1)N1[C@H](c3ccccc3)[C@H](c3ccccc3)OC(=O)[C@H]1[C@@H]2C(=O)N1CCc2cc(OC)c(OC)cc2C1 , what is it?
Result: 0.307

Problem: And then COC(=O)[C@@]1(Cc2ccccc2)[C@H]2c3cc(C(=O)N(C)C)n(Cc4c(-c5ccccc5)noc4C)c3C[C@H]2CN1C(=O)c1ccccc1 , what is it?
Result: -0.505

Where do these numbers come from? They come from PubChem BioAssay.
